Overview of reported Kd across a group of molecules:
target: Stimulator of interferon genes protein [1-379,R71H,G230A,H232R,R293Q] (Homo sapiens, UniProt Q86WV6, G230A/H232R/R293Q/R71H); construct: 1-379; experiment: Surface Plasmon Resonance (SPR)
Sequence (Q86WV6 whole entry R71H/G230A/H232R/R293Q, looked up): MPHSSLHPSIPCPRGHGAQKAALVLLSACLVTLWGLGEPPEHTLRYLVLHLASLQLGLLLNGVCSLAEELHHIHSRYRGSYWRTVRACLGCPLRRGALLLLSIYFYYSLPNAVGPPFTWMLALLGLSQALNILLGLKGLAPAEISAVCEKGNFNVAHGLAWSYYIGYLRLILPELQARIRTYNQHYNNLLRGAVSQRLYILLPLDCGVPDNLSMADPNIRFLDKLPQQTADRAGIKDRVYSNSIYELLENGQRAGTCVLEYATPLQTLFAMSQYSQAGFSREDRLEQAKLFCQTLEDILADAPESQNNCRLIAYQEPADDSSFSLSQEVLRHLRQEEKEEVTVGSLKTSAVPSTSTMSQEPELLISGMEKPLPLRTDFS
ASSAY_METRIC: Kd (nM)

entry_smiles=COc1c(C(N)=O)ccc2c1nc(-c1c(F)cc(Cl)cc1C(=O)O)n2CCn1c(-c2c(F)cc(Cl)cc2C(=O)O)nc2c(OC)c(C(N)=O)ccc21 numeric_result=78
entry_smiles=NC(=O)c1ccc2c(c1)nc(-c1ccccc1-c1nn[nH]n1)n2CCn1c(-c2ccccc2-c2nnn[nH]2)nc2cc(C(N)=O)ccc21 numeric_result=19300
entry_smiles=COc1c(C(N)=O)ccc2c1nc(-c1c(Cl)cccc1C(=O)O)n2CCn1c(-c2c(Cl)cccc2C(=O)O)nc2c(OC)c(C(N)=O)ccc21 numeric_result=2
entry_smiles=COc1c(C(N)=O)ccc2c1nc(-c1c(Cl)cccc1-c1nn[nH]n1)n2CCn1c(-c2c(Cl)cccc2-c2nn[nH]n2)nc2c(OC)c(C(N)=O)ccc21 numeric_result=2
entry_smiles=COc1c(C(N)=O)ccc2c1nc(-c1c(F)cc(F)cc1-c1n[nH]c(=O)o1)n2CCn1c(-c2c(F)cc(F)cc2-c2n[nH]c(=O)o2)nc2c(OC)c(C(N)=O)ccc21 numeric_result=423
entry_smiles=COc1c(C(N)=O)ccc2c1nc(-c1ccc(Cl)cc1-c1cn[nH]n1)n2CCn1c(-c2ccc(Cl)cc2-c2cn[nH]n2)nc2c(OC)c(C(N)=O)ccc21 numeric_result=22000
entry_smiles=COc1c(C(N)=O)ccc2c1nc(-c1c(F)cccc1C(=O)O)n2CCn1c(-c2c(F)cccc2C(=O)O)nc2c(OC)c(C(N)=O)ccc21 numeric_result=183
entry_smiles=COc1c(C(N)=O)ccc2c1nc(-c1ccc(Cl)cc1C(=O)O)n2CCn1c(-c2ccc(Cl)cc2C(=O)O)nc2c(OC)c(C(N)=O)ccc21 numeric_result=16600
